These entries and their values trace back to patent US9550782B2.

target entity: human recombinant adrenergic α2A receptor (Homo sapiens, UniProt P08913)
Construct: expressed in transfected cells; host or cells: insect Sf9 cells
Sequence (P08913 1-465): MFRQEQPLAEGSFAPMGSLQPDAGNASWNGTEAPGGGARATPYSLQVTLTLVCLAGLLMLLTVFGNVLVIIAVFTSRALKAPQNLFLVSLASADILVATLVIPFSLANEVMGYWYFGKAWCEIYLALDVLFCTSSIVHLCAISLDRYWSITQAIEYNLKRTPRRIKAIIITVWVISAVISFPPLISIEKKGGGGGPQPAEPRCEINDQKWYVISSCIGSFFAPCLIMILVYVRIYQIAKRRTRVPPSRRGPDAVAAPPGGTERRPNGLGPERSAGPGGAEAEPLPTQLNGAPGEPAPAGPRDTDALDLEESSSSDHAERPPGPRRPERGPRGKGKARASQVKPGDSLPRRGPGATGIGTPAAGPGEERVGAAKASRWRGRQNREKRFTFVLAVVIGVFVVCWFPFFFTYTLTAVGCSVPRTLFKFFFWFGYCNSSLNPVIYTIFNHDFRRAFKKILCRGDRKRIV
assay info: Radioligand binding, adrenergic α2A ([3H]MK-912)
study conditions: compound at 0.1 μM; [3H]MK-912; repeat datapoints each shown; 0.1 µM
measure: Percentage inhibition of ligand binding, Adrenergic α2A (0.1 μM) (%)

[[record]]
compound = "CCC(O)(Cn1c2c(c3cc(C)ccc31)CN(C)CC2)c1ccc(F)cc1 (single isomer, unassigned) [34a]"
unit_name = "%"
reported_result = 29

[[record]]
compound = "Cc1ccc2c(c1)c1c(n2CC(O)c2ccncc2)CCN2CCCCC12 (single isomer, unassigned) [47b]"
unit_name = "%"
reported_result = 41

[[record]]
compound = "Cc1ccc2c(c1)c1c(n2CC(O)c2ccncc2)CC2CCCCN2C1 (racemic) [75b]"
unit_name = "%"
reported_result = 5

[[record]]
compound = "CN1CCc2c(n(CC(C)(O)c3cccnc3)c3ccc(Cl)cc23)C1 (single isomer, unassigned) [28b]"
unit_name = "%"
reported_result = 24

[[record]]
compound = "CN1CCc2c(c3cc(C(F)(F)F)ccc3n2CC(O)c2cccnc2)C1 (single isomer, unassigned) [59b]"
unit_name = "%"
reported_result = 12

[[record]]
compound = "Cc1ccc2c(c1)c1c(n2CC(O)c2cccnc2)CCN(CCO)C1 (single isomer, unassigned) [21b]"
unit_name = "%"
reported_result = "−3"

[[record]]
compound = "Cc1ccc2c(c1)c1c(n2CC(C)(O)c2cccnc2)CCNC1 (single isomer, unassigned) [24b]"
unit_name = "%"
reported_result = 15

[[record]]
compound = "Cc1ccc2c(c1)c1c(n2CC(O)c2ccncc2)CC2CCCCN2C1 (racemic) [75c]"
unit_name = "%"
reported_result = "−2"

[[record]]
compound = "CC(O)(Cn1c2c(c3cc(Cl)ccc31)CN(C1CCC1)CC2)c1cccnc1 (single isomer, unassigned) [II-118a]"
unit_name = "%"
reported_result = 3

